tested target: T1, recombinant human IL-12 (rhIL-12) (human, UniProt P29459 23-219; P29460 23-328)
T1 chain 1: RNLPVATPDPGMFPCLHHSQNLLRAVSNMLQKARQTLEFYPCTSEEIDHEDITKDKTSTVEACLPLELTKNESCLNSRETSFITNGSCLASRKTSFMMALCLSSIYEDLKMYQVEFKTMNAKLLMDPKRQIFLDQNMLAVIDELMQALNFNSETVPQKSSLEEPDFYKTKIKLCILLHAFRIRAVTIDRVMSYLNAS
T1 chain 2: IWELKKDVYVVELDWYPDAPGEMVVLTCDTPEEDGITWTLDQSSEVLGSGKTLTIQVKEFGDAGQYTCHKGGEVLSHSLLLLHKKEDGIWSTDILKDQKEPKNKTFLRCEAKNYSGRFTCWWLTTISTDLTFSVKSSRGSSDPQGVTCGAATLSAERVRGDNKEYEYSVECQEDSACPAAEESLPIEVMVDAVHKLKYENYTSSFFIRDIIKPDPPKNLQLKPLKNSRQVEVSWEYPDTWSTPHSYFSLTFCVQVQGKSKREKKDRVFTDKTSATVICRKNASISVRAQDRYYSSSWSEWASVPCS
method description: BIAcore
measured endpoint: koff (s⁻¹)

binder	koff (s⁻¹)
QSYDMGTHPALL [Y61 L93 M]	0.000275

1. QSYDDGTHPALL [Y61 L93 D]
2. QSYIRGTHPALL [Y61 L92 I]
Could you tell me which of these two has the smaller koff figure? First: 1 Second: 2 API: response body contains the label of the selected item.
1

P. QSYFRGTHPALL [Y61 L92 F]
Q. QSYDRLTHPALL [Y61 L94 L]
R. QSYWRGTHPALL [Y61 L92 W]
Put the items in order so that reported koff rises from first to last. As an answer, provide the labels arranged in the order called for.
Q, P, R
(Q: 0.000244 s⁻¹, P: 0.000449 s⁻¹, R: 0.00072 s⁻¹)

I. QSYTRGTHPALL [Y61 L92 T]
II. QSYLRGTHPALL [Y61 L92 L]
Could you tell me which of these two has the smaller koff figure? First: I Second: II API: response body contains the label of the selected item.
I
(I: 0.000408 s⁻¹, II: 0.000728 s⁻¹)

P. QSYYRGTHPALL [Y61 L92 Y]
Q. QSYDRSTHPALL [Y61 L94 S]
Could you tell me which of these two has the smaller koff figure? First: P Second: Q API: response body contains the label of the selected item.
Q
